Biological target: T1, human LIGHT (TNFSF14), full length, membrane-bound (214E allele) (human, UniProt O43557 1-240)
T1 construct: also called membrane LIGHT; human membrane LIGHT
T1 sequence (O43557 whole entry K214E): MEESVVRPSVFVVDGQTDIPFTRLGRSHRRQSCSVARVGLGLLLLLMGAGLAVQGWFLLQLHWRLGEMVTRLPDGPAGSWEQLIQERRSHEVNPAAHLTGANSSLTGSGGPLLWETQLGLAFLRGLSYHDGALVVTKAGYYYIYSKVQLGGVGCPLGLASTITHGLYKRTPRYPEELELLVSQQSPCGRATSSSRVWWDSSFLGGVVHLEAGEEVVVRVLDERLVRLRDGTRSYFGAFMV
Experiment: competition with biotin-LTβR:Fc, HEK293FF LIGHT cells, flow cytometry
Entries and their measured IC50 follow.
parameter: IC50

binder: 3C10 (antibody, human IgG4, V domains shown, chimeric human IgG4 (S-to-P, L-to-E at 248), human CL; also called Parental 3C10) VH: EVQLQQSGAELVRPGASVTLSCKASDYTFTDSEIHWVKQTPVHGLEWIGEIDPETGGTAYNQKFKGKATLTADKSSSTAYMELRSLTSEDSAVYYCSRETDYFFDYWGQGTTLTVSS VL: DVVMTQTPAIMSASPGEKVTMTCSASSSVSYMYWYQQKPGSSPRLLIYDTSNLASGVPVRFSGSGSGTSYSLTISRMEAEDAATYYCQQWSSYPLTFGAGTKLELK
observedValue: 1.9 nM
//
binder: 3D12 (antibody, human IgG4, V domains shown, chimeric: mouse variable domains on human IgG4 HC (S-to-P and L-to-E at 248) and human CL; also called Parental 3D12; 3D12 chimeric) VH: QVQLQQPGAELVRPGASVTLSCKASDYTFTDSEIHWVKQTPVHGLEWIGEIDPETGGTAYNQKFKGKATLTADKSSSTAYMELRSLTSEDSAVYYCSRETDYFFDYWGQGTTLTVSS VL: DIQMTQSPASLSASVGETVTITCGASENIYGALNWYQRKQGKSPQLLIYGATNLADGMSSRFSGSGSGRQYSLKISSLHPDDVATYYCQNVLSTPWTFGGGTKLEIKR
observedValue: 0.6 nM
//
binder: 2B11 (antibody, human IgG4, V domains shown, chimeric human IgG4 (S-to-P, L-to-E at 248), human CL; also called Parental 2B11) VH: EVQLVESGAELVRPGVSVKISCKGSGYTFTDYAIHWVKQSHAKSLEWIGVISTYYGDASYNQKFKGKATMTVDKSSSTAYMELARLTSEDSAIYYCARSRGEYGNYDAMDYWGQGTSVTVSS VL: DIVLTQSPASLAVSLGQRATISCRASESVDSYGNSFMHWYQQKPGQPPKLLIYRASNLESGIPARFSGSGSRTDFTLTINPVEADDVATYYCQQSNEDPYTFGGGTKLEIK
observedValue: 2.1 nM
//
binder: 2E08 (antibody, human IgG4, V domains shown, chimeric human IgG4 (S-to-P, L-to-E at 248), human CL; also called Parental 2E08) VH: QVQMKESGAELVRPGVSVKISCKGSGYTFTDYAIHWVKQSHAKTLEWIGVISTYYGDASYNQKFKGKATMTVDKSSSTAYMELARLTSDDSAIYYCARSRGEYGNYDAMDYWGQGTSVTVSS VL: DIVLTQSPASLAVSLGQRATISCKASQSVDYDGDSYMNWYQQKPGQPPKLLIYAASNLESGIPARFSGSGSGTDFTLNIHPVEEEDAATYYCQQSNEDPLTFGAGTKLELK
observedValue: 14.4 nM
//
binder: 3A07 (antibody, human IgG4, V domains shown, chimeric human IgG4 (S-to-P, L-to-E at 248), human CL; also called Parental 3A07) VH: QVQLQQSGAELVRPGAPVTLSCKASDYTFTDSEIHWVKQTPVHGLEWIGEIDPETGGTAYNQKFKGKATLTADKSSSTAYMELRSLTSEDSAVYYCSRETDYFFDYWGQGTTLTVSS VL: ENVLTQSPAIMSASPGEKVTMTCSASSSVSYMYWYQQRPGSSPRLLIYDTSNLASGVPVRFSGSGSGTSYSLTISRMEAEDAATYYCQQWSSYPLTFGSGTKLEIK
observedValue: 1.4 nM
//
binder: 3B04 (antibody, human IgG4, V domains shown, chimeric: mouse variable domains on human IgG4 HC (S-to-P and L-to-E at 248) and human CL; also called Parental 3B04; 3B04 chimeric) VH: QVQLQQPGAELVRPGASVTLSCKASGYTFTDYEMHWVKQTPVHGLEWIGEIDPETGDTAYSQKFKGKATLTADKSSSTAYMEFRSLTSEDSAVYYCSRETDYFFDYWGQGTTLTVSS VL: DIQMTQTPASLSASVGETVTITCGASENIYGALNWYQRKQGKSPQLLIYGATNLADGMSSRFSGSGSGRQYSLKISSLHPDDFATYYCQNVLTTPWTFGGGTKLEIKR
observedValue: 1.1 nM
//
binder: 3E09 (antibody, V domains shown, chimeric human IgG4 (S-to-P, L-to-E at 248), human CL; also called Parental 3E09) VH: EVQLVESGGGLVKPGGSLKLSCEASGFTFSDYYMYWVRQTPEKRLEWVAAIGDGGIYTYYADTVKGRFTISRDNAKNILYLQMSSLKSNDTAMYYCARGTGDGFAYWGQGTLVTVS VL: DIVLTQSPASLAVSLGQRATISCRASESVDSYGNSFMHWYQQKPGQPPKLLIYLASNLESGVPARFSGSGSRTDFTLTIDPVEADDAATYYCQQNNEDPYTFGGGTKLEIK
observedValue: 12 nM
